Please consider the recorded IC50 for Hsc70-NBD (Homo sapiens) in what follows.

| compound | IC50 / µM |
| --- | --- |
| O=P(O)(O)OP(=O)(O)OC[C@H]1O[C@@H](n2cnc3c(NCc4ccccc4)ncnc32)[C@H](O)[C@@H]1O [6-Bn ADP, N6-benzyladenosine-5’-diphosphate] | 1470 |
| O=P(O)(O)OP(=O)(O)OC[C@H]1O[C@@H](n2cnc3c(NCCc4ccccc4)ncnc32)[C@H](O)[C@@H]1O | 2100 |
| Cc1cccc(CNc2ncnc3c2ncn3[C@@H]2O[C@H](COP(=O)(O)OP(=O)(O)O)[C@@H](O)[C@H]2O)c1 | 8040 |
| O=P(O)(O)OP(=O)(O)OC[C@H]1O[C@@H](n2cnc3c(NC4CCCCC4)ncnc32)[C@H](O)[C@@H]1O [6-cHe ADP, N6-cyclohexyladenosine-5’-diphosphate] | 2230 |
| O=P(O)(O)OP(=O)(O)OC[C@H]1O[C@@H](n2cnc3c(NCc4ccco4)ncnc32)[C@H](O)[C@@H]1O [6-Fu ADP, N6-furfuryladenosine-5’-diphosphate] | 6780 |

---

molecular target: Hsc70-NBD (Homo sapiens, UniProt P11142); test: ITC binding of modified ADP analogues to Hsc70-NBD; conditions: ITC, 25 °C, Hsc70-NBD, binding entropy change
Sequence (P11142 1-385): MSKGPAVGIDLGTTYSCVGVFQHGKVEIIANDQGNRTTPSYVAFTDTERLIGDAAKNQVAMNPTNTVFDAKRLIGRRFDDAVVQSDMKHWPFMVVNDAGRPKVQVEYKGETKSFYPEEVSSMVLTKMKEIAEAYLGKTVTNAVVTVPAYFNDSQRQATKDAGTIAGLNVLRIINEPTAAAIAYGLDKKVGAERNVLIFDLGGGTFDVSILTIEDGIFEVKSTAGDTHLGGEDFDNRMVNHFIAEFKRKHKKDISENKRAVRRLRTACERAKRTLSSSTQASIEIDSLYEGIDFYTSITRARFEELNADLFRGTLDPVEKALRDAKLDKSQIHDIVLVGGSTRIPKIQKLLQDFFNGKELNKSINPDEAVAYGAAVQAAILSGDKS

| compound | ΔS |
| --- | --- |
| O=P(O)(O)OP(=O)(O)OC[C@H]1O[C@@H](n2cnc3c(NCCc4ccccc4)ncnc32)[C@H](O)[C@@H]1O | 65.31 ± 1.22 J/mol·K |
| O=P(O)(O)OP(=O)(O)OC[C@H]1O[C@@H](n2cnc3c(NCc4ccco4)ncnc32)[C@H](O)[C@@H]1O [6-Fu ADP, N6-furfuryladenosine-5’-diphosphate] | 19.22 ± 5.06 J/mol·K |
| O=P(O)(O)OP(=O)(O)OC[C@H]1O[C@@H](n2cnc3c(NCc4ccccc4)ncnc32)[C@H](O)[C@@H]1O [6-Bn ADP, N6-benzyladenosine-5’-diphosphate] | 72.13 ± 2.77 J/mol·K |
| Nc1ncnc2c1ncn2[C@@H]1O[C@H](COP(=O)(O)OP(=O)(O)O)[C@@H](O)[C@H]1O [ADP, reference compound] | 34.19 ± 1.55 J/mol·K |
| O=P(O)(O)OP(=O)(O)OC[C@H]1O[C@@H](n2cnc3c(NC4CCCCC4)ncnc32)[C@H](O)[C@@H]1O [6-cHe ADP, N6-cyclohexyladenosine-5’-diphosphate] | 37.74 ± 7.36 J/mol·K |
| Cc1cccc(CNc2ncnc3c2ncn3[C@@H]2O[C@H](COP(=O)(O)OP(=O)(O)O)[C@@H](O)[C@H]2O)c1 | −41.10 ± 12.94 J/mol·K |

---

Reported pKd values are given for each entry in this list.
biological target: Hsp70-NBD (Homo sapiens, UniProt P0DMV8); assay: ITC binding of modified ADP analogues to Hsp70-NBD
Sequence (P0DMV8 1-381): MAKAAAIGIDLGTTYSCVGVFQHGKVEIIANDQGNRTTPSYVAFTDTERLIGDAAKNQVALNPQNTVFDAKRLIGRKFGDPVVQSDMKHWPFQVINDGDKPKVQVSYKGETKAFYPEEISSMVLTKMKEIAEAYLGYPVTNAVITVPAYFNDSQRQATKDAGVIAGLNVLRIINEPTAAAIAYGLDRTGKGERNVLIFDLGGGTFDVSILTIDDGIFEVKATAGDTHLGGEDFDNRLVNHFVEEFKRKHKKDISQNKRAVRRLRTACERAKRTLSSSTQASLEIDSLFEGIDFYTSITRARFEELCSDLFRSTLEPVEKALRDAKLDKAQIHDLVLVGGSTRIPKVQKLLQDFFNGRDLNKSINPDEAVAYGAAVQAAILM
pKd: −log10 of the molar value.

| molecule | pKd |
| --- | --- |
| O=P(O)(O)OP(=O)(O)OC[C@H]1O[C@@H](n2cnc3c(NCc4ccccc4)ncnc32)[C@H](O)[C@@H]1O [6-Bn ADP, N6-benzyladenosine-5’-diphosphate] | 5.67 |
| Cc1cccc(CNc2ncnc3c2ncn3[C@@H]2O[C@H](COP(=O)(O)OP(=O)(O)O)[C@@H](O)[C@H]2O)c1 | 6.60 |
| O=P(O)(O)OP(=O)(O)OC[C@H]1O[C@@H](n2cnc3c(NCCc4ccccc4)ncnc32)[C@H](O)[C@@H]1O | 6.84 |
| O=P(O)(O)OP(=O)(O)OC[C@H]1O[C@@H](n2cnc3c(NCc4ccco4)ncnc32)[C@H](O)[C@@H]1O [6-Fu ADP, N6-furfuryladenosine-5’-diphosphate] | 5.37 |
| O=P(O)(O)OP(=O)(O)OC[C@H]1O[C@@H](n2cnc3c(NC4CCCCC4)ncnc32)[C@H](O)[C@@H]1O [6-cHe ADP, N6-cyclohexyladenosine-5’-diphosphate] | 6.70 |
